system: HCoV-OC43 gRNA and sgRNA; type: binding; settings: type n_48_v; 48 hpi; OC43 Probe II capture on infected cells
quantity: target (unweighted spectral count, OC43 Probe II)
Response field accepts a number only; no unit should be typed.

Output measured target (unweighted spectral count, OC43 Probe II) for this item: APOBEC3F (protein, UniProt Q8IUX4 1-373, looked up) DNA dC->dU-editing enzyme …: MKPHFRNTVERMYRDTFSYNFYNRPILSRRNTVWLCYEVKTKGPSRPRLDAKIFRGQVYSQPEHHAEMCFLSWFCGNQLPAYKCFQITWFVSWTPCPDCVAKLAEFLAEHPNVTLTISAARLYYYWERDYRRALCRLSQAGARVKIMDDEEFAYCWENFVYSEGQPFMPWYKFDDNYAFLHRTLKEILRNPMEAMYPHIFYFHFKNLRKAYGRNESWLCFTMEVVKHHSPVSWKRGVFRNQVDPETHCHAERCFLSWFCDDILSPNTNYEVTWYTSWSPCPECAGEVAEFLARHSNVNLTIFTARLYYFWDTDYQEGLRSLSQEGASVEIMGYKDFKYCWENFVYNDDEPFKPWKGLKYNFLFLDSKLQEILE
6

Hey, just so you know, these numbers are from patent US20230407373A1.
